target: factor Xa (Bos taurus); construct: purchased Diagnostic Reagents Ltd, Thame, GB; assay: Determination of the inhibitory constants for factor Xa (chromogenic substrate Moc-D-Nle-Gly-Arg-pNA, Dixon method); format: biochemical, bovine
Where a name gives a salt, the structure may show the parent alone.
List of selectivity ratio SR (SR = Ki thrombin/Ki factor Xa) values.
Write no unit; give the number alone.

Guide cases for selectivity ratio SR (SR = Ki thrombin/Ki factor Xa), answers given:
# compound, obs-value
rows = [
    ("N=C(N)c1ccc(CNC(=O)[C@H](CO)NC(=O)C(CCc2ccncc2)NS(=O)(=O)Cc2ccncc2)cc1 (stereo partly drawn)", 65),
    ("CC(C)(C)OC(=O)CCC[C@H](NC(=O)[C@@H](CCc1ccccc1)NS(=O)(=O)Cc1ccccc1)C(=O)NCc1ccc(C(=N)N)cc1", 3.5),
]

Provide only the value of recorded selectivity ratio SR (SR = Ki thrombin/Ki factor Xa) for N=C(N)c1ccc(CNC(=O)CNC(=O)C(CCc2cc[n+]([O-])cc2)NS(=O)(=O)Cc2ccccc2)cc1 (stereo not drawn)
730

Provide only the value of recorded selectivity ratio SR (SR = Ki thrombin/Ki factor Xa) for N=C(N)c1ccc(CNC(=O)[C@H](CO)NC(=O)[C@@H](CCc2ccncc2)NS(=O)(=O)Cc2ccccc2)cc1 [Compound 3a, Bzls-D,L-homoAla(4-Pyr)-Ser-4Amba×2 TFA]
97

Provide only the value of recorded selectivity ratio SR (SR = Ki thrombin/Ki factor Xa) for N=C(N)c1ccc(CNC(=O)CNC(=O)[C@@H](CCc2ccccc2)NS(=O)(=O)Cc2ccc(N)cc2)cc1
100

Provide only the value of recorded selectivity ratio SR (SR = Ki thrombin/Ki factor Xa) for N=C(N)c1ccc(CNC(=O)CNC(=O)[C@@H](CCc2ccccc2)NS(=O)(=O)Cc2ccc(CC(=O)O)cc2)cc1
259

* * *

target: factor Xa (Bos taurus, UniProt P00743); construct: purchased Diagnostic Reagents Ltd, Thame, GB; test: Determination of the inhibitory constants for factor Xa (chromogenic substrate Moc-D-Nle-Gly-Arg-pNA, Dixon method); assay type: biochemical, bovine
Sequence (P00743 234-492 limits assumed): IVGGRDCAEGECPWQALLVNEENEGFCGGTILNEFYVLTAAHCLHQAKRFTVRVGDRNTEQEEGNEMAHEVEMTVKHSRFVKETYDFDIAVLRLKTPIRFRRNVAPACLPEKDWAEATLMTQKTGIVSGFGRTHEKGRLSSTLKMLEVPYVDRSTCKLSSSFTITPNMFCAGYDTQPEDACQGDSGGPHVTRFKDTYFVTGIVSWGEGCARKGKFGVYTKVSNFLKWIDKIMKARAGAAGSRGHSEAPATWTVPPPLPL
Sequence (P00743 41-180 partner limits assumed): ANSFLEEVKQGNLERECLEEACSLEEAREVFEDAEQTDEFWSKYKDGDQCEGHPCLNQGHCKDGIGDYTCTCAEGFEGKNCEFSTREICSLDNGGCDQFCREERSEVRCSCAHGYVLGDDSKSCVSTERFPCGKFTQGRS
outcome-measure: selectivity ratio SR (SR = Ki thrombin/Ki factor Xa)
Write no unit; give the number alone.

Guide cases for selectivity ratio SR (SR = Ki thrombin/Ki factor Xa), answers given:
# compound, obs-value
measured = [
    ("COC(=O)Cc1ccc(CS(=O)(=O)NC(CCc2ccncc2)C(=O)NCC(=O)NCc2ccc(C(=N)N)cc2)cc1 (stereo not shown)", 463),
    ("N=C(N)c1ccc(CNC(=O)[C@H](CCC(=O)O)NC(=O)[C@@H](CCc2ccncc2)NS(=O)(=O)Cc2ccc(N)cc2)cc1 [Compound 52]", 5250),
    ("N=C(N)c1ccc(CNC(=O)CNC(=O)[C@@H](CCc2ccccc2)NS(=O)(=O)Cc2ccccc2N)cc1", 137),
]

Here is another compound to look at.
Determine reported selectivity ratio SR (SR = Ki thrombin/Ki factor Xa) for N=C(N)c1ccc(CNC(=O)CNC(=O)[C@@H](CCCc2ccccc2)NS(=O)(=O)Cc2ccccc2)cc1 ; test system: factor Xa (Bos taurus, UniProt P00743).
3

* * *

molecular target: factor Xa (Bos taurus, UniProt P00743); construct: purchased Diagnostic Reagents Ltd, Thame, GB; experiment: Determination of the inhibitory constants for factor Xa (chromogenic substrate Moc-D-Nle-Gly-Arg-pNA, Dixon method); assay type: biochemical, bovine
Counter-ions that a name gives are not always drawn.
outcome-measure: selectivity ratio SR (SR = Ki thrombin/Ki factor Xa)
Write no unit; give the number alone.

Guide cases for selectivity ratio SR (SR = Ki thrombin/Ki factor Xa), answers given:
# compound, tested-target, obs-value
records = [
    ("N=C(N)c1ccc(CNC(=O)[C@H](CO)NC(=O)[C@H](CCc2ccncc2)NS(=O)(=O)Cc2ccccc2)cc1 [Compound 3b, Bzls-D,L-homoAla(4-Pyr)-Ser-4Amba×2 TFA]", "factor Xa (Bos taurus, UniProt P00743)", 48.4),
    ("N=C(N)c1ccc(CNC(=O)[C@H](CCC(=O)O)NC(=O)[C@@H](CCc2ccc(O)cc2)NS(=O)(=O)Cc2ccc(N)cc2)cc1", "factor Xa (Bos taurus, UniProt P00743)", 22940),
    ("N=C(N)c1ccc(CNC(=O)CNC(=O)[C@@H](CCc2ccccc2)NS(=O)(=O)Cc2ccc(O)cc2)cc1", "factor Xa (Bos taurus, UniProt P00743)", 105),
    ("N=C(N)c1ccc(CNC(=O)CNC(=O)[C@@H](C/C=C/c2ccccc2)NS(=O)(=O)Cc2ccccc2)cc1", "factor Xa (Bos taurus, UniProt P00743)", 3.1),
    ("CC(C)(C)OC(=O)CN[C@H](CCc1ccccc1)C(=O)NCC(=O)NCc1ccc(C(=N)N)cc1", "factor Xa (Bos taurus, UniProt P00743)", 2.4),
]

Here is another compound to look at.
Provide only the value of recorded selectivity ratio SR (SR = Ki thrombin/Ki factor Xa) for N=C(N)c1ccc(CNC(=O)CNC(=O)[C@@H](CCc2ccccc2)NS(=O)(=O)Cc2cccnc2)cc1 [Compound 9, 3-PMs-dhomoPhe-Gly-4Amba×2 TFA]
95
